# assay_explanation: qHTS to identify inhibitors of the type 1 interferon - major histocompatibility complex class I in skeletal muscle: primary screen against the NCATS Pharmaceutical Collection (AID 1347407);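 further: luminescence of HiBiT knocked into endogenous HLA-B as interferon-induced MHC class I level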; further: potency means the concentration at half of the fitted maximal effect
# condition_description: human skeletal muscle cells, IFN-b-induced MHC-I HiBiT luminescence, 24 h; series mostly up to 45.9 µM
Results filed as inconclusive are left out. Activity calls are given as the source filed them. The call rests on the fitted dose curve; in most records, active means well fitted inhibition curve with a large enough effect; inconclusive means small, poorly fitted or top-dose-only effect; inactive means flat fitted curve, though single readings scatter.
property_label: Potency

Answered examples (5):
{"compound_structure": "O=C1NC(=O)C(c2ccccc2)(c2ccccc2)N1", "Potency": "inactive"}
{"compound_structure": "CCN1CCC[C@H]1CNC(=O)c1cc(S(N)(=O)=O)ccc1OC", "Potency": "inactive"}
{"compound_structure": "COc1cc2ncnc(Nc3ccc(F)c(Cl)c3)c2cc1OCCCN1CCOCC1", "Potency": "inactive"}
{"compound_structure": "CC[C@]1(O)C[C@@H]2CN(CCc3c([nH]c4ccccc34)[C@@](C(=O)OC)(c3cc4c(cc3OC)N(C)[C@H]3[C@@](O)(C(=O)OC)[C@H](OC(C)=O)[C@]5(CC)C=CCN6CC[C@]43[C@@H]65)C2)C1", "Potency": "inactive"}
{"compound_structure": "O=C(CCCCCCC(=O)Nc1ccccc1)NO", "Potency": "4.19 µM (active)"}

According to the records, this molecule C[N+](C)(C)CCCCCC[N+](C)(C)C displays Potency of inactive

According to the records, this molecule CCN(CC)C(=O)c1ccc(O)c(OC)c1 displays Potency of inactive

According to the records, this molecule CCn1cc(C(=O)O)c(=O)c2ccc(C)nc21 displays Potency of inactive

According to the records, this molecule O=C(O)Cc1cccc2ccccc12 displays Potency of inactive

According to the records, this molecule CN1C[C@H]2c3ccccc3Oc3ccc(Cl)cc3[C@@H]2C1 displays Potency of inactive

According to the records, this molecule CCN(CC)CCOC(=O)c1ccc(N)cc1 displays Potency of inactive

The measured values listed here are drawn from PubChem BioAssay (NCATS).
